Target: T1, GST-human NOGO-A56 (human, UniProt Q9NQC3 586-785)
T1 construct: GST-tagged fusion expressed in E. coli BL21 from pGEX-6P1; also called hNOGO; human NOGO 5+6 GST; not shown: Glutathione S-transferase tag encoded by vector pGEX-6P1 (N-terminal, with vector linker)
T1 sequence: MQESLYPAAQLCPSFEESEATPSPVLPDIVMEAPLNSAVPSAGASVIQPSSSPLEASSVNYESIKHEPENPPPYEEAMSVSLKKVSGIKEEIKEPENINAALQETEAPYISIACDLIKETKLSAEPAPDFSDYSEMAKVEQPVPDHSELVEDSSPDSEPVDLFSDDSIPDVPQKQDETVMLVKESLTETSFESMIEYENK
Assay: SPR (Biacore), GST-human NOGO-A56 immobilised, purified antibody as analyte; single experiment
ASSAY ENDPOINT: kon (M⁻¹ s⁻¹)
Numbers only here, please. The scale is M⁻¹ s⁻¹.

Query :: Which kon is listed for H6L13 (antibody, human IgG1, kappa, V domains shown) VH: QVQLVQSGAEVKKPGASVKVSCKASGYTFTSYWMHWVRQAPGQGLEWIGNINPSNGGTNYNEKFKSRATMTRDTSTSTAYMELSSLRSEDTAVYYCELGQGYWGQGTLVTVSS VL: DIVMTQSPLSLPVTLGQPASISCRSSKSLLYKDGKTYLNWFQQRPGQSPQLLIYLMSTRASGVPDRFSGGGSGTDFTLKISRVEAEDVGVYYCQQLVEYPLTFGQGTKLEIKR ?
Result :: 2.2e+06
